Data origin, for the record: the supplement of paper PMC10567573

B1: DLC1 (parent)
chain: AEVVKIRDSFSNQNTETKDTKSR

Variants of: B1
method: protein stability index of a GFP-peptide fusion (GPS, HEK-293T) (PSI 1-6); higher = more stable;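 further: lentivirally expressed fusions sorted by FACS into six bins by GFP to DsRed ratio, PSI derived from sequencing read proportions per bin multiplied by bin number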
run conditions: c terminus: native
For each entry below, report its protein stability index value.
Give bare numbers.

Use the examples below as a reference point.
INSERT INTO results (mutation_annotation, recorded_number) VALUES
  ('Q13A', 2.41),
  ('S22T', 3.04);

Here are 4 variants. What values of protein stability index were reported for them?
1. T17M
2. N14V
3. V4Y
4. E16S

1. 2.68
2. 1.66
3. 2.76
4. 1.9

Below is a list of variants. For each, state its recorded protein stability index.
1. S9V
2. S11A
3. R23A
4. N14K

[2.25, 1.9, 5.57, 2.44]

Count: 2. Required value per item: protein stability index.
1. V4W
2. V4K

1. 2.05
2. 2.3
